Target entity: T1, fusion protein glutathione-S-transferase-Bcl-XL (UniProt P08515 1-218 = GST; Q07817 1-209)
T1 construct: also called GST-Bcl-XL
T1 sequence (P08515 1-218, tags or fused parts left off): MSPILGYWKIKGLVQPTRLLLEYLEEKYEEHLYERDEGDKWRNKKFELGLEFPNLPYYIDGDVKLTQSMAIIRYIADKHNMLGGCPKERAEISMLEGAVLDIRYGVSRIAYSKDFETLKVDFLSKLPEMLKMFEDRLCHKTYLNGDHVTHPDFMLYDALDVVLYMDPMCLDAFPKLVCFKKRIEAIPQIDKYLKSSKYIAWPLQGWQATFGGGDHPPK
Protocol summary: fluorescence polarisation, 15 nM fluorescein-peptide, GST-Bcl-XL titrated 1 nM to 5 uM
No end group written: not given here. fluorescein = fluorescein label at the N-terminal end
Readout kind: pKd
Answers are plain numbers, as −log10 of the molar value.

[Q] Requested field: pKd. Item: fluorescein-DTRRSMVFARHLREVGDEFRSR (Used at 15 nM in fluorescence polarisation; also called ID; NO.1) [peptide obtained in Example 1 labelled with fluorescein at the N-terminal end]
[A] 6.67
